B1: POU domain, class 2, transcription factor 3, residues 186 to 260; numbered along this chain, Q9UKI9 (parent)
chain: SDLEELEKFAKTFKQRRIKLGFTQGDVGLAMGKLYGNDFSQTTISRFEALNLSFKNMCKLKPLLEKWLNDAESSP

# Variants of: B1
# test-summary: abundance fitness (aPCA) (normalised: wild type 0, dead -1); higher = more abundant; growth selection in yeast, the domain comes from the species named
# conditions: Homo sapiens
// reported abundance fitness per item
Lab note: record just the number, no unit beside it.

Would you please look over these solved cases?
L68C :: -0.153
E72V :: -0.043

Item: D26R | abundance fitness: -0.344

Item: I44N | abundance fitness: -1.1
